measure: melting point

[[record]]
line_notation = "O=[N+]([O-])c1cc(C(F)(F)F)ccc1Oc1ccccc1Br"
result = "58 to 62 °C"

[[record]]
line_notation = "O=C(Oc1c(F)c(F)c(F)c(F)c1F)c1ccc(OC2CCOCC2)cc1"
result = "111 to 114 °C"

[[record]]
line_notation = "CC(=O)c1cc(Cl)c(C)cc1O"
result = "70 to 73 °C"

[[record]]
line_notation = "O=C(CCl)NCc1ccc2c(c1)OCO2"
result = "91.4 to 93.8 °C"

[[record]]
line_notation = "Sc1nnc(-c2cccc3ccccc23)n1Cc1ccco1"
result = "177 to 178 °C"

[[record]]
line_notation = "CC(C)(C)C1=CC(=Cc2cc(C(C)(C)C)c(O)c(C(C)(C)C)c2)C=C(C(C)(C)C)C1=O"
result = "156 to 160 °C"

[[record]]
line_notation = "NC(=S)Nc1ccc2c(c1)OCO2"
result = "198 to 200 °C"

[[record]]
line_notation = "O=Cc1cccc(Oc2ccccn2)c1"
result = "115 to 116 °C"

[[record]]
line_notation = "CSc1nc2cc(NCc3ccc4c(c3)OCO4)ccc2[nH]1"
result = "146 to 148 °C"

[[record]]
line_notation = "COc1ccc(C2(C(=O)O)CCCC2)cc1"
result = "151 to 156 °C"


Q: Input CCN(CC)c1ccc(C=NN(c2ccccc2)c2ccccc2)cc1 , output reported melting point.
Result: 92 to 95 °C

Q: Input O=C1NC(=O)c2cccc3cccc1c23 , output reported melting point.
Result: 301 to 302 °C

Q: Input NNC(=O)Cc1ccccc1 , output reported melting point.
Result: 115 to 117 °C

Q: Input CCOC(=O)c1ncoc1-c1ccccc1 , output reported melting point.
Result: 32 to 35 °C

Q: Input O=Cc1ccc2ncccc2c1 , output reported melting point.
Result: 74 to 75 °C

* * *

Below, each of the compounds is paired with its reported melting point value.

A selection of reference data follows.
[[record]]
line_notation = "O=CC(C=O)c1ccc(C(=O)O)cc1[N+](=O)[O-]"
result = "199 to 205 °C"

[[record]]
line_notation = "Nc1cscc1S(=O)(=O)c1ccccc1"
result = "125 to 126 °C"


Q: Input OC[C@H]1O[C@H](CO)[C@@H](O)[C@@H]1O , output reported melting point.
Result: 100 to 103 °C

Q: Input O=C(CS(=O)(=O)c1ccccc1)c1ccccc1 , output reported melting point.
Result: 92 to 95 °C

Q: Input OCc1ccc(N2CCOCC2)nc1 , output reported melting point.
Result: 74 to 76 °C

Q: Input O=Cc1ccc(N2CCCC2)nc1 , output reported melting point.
Result: 89 to 90 °C

Q: Input CCCCCOc1ccc(C(=O)O)cc1 , output reported melting point.
Result: 123 to 127 °C

Q: Input O=C(Nc1ccccc1)C(C(F)(F)F)C(F)(F)F , output reported melting point.
Result: 165 to 167 °C

Q: Input CCCCCCCCOc1ccc(C(C)=O)cc1 , output reported melting point.
Result: 30 to 32 °C

Q: Input CC(=O)Nc1ccc2c(c1)CCCC2=O , output reported melting point.
Result: 127 to 129 °C

* * *

Below, each of the molecules is paired with its reported melting point value.

A selection of reference data follows.
[[record]]
line_notation = "CN(C(=S)Cl)c1ccccc1"
result = "31 to 34 °C"

[[record]]
line_notation = "COC(=O)c1cc2ccccc2cn1"
result = "88 to 89 °C"

[[record]]
line_notation = "CCOC(=O)Cc1ccc(O)cc1"
result = "39 to 40 °C"

[[record]]
line_notation = "Nc1cc(O)c(Cl)cc1Cl"
result = "133 to 137 °C"


Let us move to another entry and its melting point.
Q: Input Nc1c(Br)cccc1C(=O)O , output reported melting point.
Result: 173 to 175 °C

* * *

Below, each of the compounds is paired with its reported melting point value.

A selection of reference data follows.
[[record]]
line_notation = "COC(=O)c1sccc1NN"
result = "69 to 71 °C"

[[record]]
line_notation = "O=Cc1ccc(-c2cncnc2)cc1"
result = "147 to 148 °C"


Q: Input Cc1ccc(S(=O)(=O)OCCCOS(=O)(=O)c2ccc(C)cc2)cc1 , output reported melting point.
Result: 90 to 93 °C

Q: Input O=C=Nc1ccc(Br)cc1Cl , output reported melting point.
Result: 71 to 75 °C

* * *

measure: melting point

[[record]]
compound = "C[C@@H](NC(=O)c1ccccc1)c1ccccc1"
measure = "melting point"
result = "123 to 125 °C"

[[record]]
compound = "COC(=O)C1=C(C)NC(CBr)=C(C(=O)OCCCl)C1c1cccc([N+](=O)[O-])c1 (stereo not given)"
measure = "melting point"
result = "205 to 206 °C"


Let us move to another entry and its melting point.
Q: Input C1CCC(N2CCNCC2)CC1 , output reported melting point.
Result: 28 to 32 °C

* * *

measure: melting point (°C)

[[record]]
compound = "NS(=O)(=O)c1ccc(SCCCCO)cc1"
measure = "melting point"
measure_unit = "°C"
numeric_value = 101


(1) O=C(OCC(=O)N1CCOCC1)c1ccccc1
(2) CC(C)OC(=O)COc1cc(Cl)c(Cl)cc1Cl
Q: Rank 1 against 2 by their melting point values and give the higher one. // output: label of the selected item
Result: 1
(1: 104 °C, 2: 45 °C)

(A) CC(C)(C)c1csc(N)n1
(B) CC(=O)OC1C(O)C2=C(C(=O)C(OC(C)=O)C3(CC3C)C2=O)C2(C)CCC(=O)C(C)(C)C12 (stereo not given)
Q: Smaller melting point value? Options are A and B // output: label of the selected item
Result: A

(1) COc1c(Br)c(C)c(Br)c(Br)c1OC
(2) Cc1c(Cl)ncnc1Cl
Q: Smaller melting point value? Options are 1 and 2 // output: label of the selected item
Result: 2
(2: 58 °C, 1: 90 °C)

(I) CCCCCCCCCCC(=O)CCCCC
(II) O=C(O)COc1ccc2ccccc2c1
(III) COc1ccccc1NC(=O)CC(C)=O
Q: Please rank these compounds by melting point in descending order. Use the labels to give the ranking in the order requested.
Result: II, III, I
(II: 156 °C, III: 86 °C, I: 37 °C)

(A) N#Cc1ccnc(I)c1
(B) CCOC(N)=S
Q: Smaller melting point value? Options are A and B // output: label of the selected item
Result: B
(B: 41 °C, A: 79 °C)

(P) COC(=O)c1cc(Br)c(C)c(Br)c1
(Q) CC1=NN(c2ccc(C)cc2)C(=O)C1
(R) CCN(CC)CC(O)CO (stereo not given)
(S) Sc1nc2cccnc2s1
Q: Please rank these compounds by melting point in descending order. Use the labels to give the ranking in the order requested.
Result: S, Q, P, R
(S: 300 °C, Q: 138 °C, P: 88 °C, R: -30 °C)

(1) CCOC(=O)c1c(SC)nn(C(=O)c2ccccc2)c1N
(2) COc1cc(C(=O)O)cc(Cl)c1O
Q: Smaller melting point value? Options are 1 and 2 // output: label of the selected item
Result: 1
(1: 95 °C, 2: 245 °C)

(a) CCOC(=O)c1cccc(C(=O)OCC)c1
(b) CC12CCC=C1C1CCC3=CC(=O)CCC3(C)C1CC2 (stereo not given)
Q: Smaller melting point value? Options are a and b // output: label of the selected item
Result: a
(a: 11.5 °C, b: 117 °C)

* * *

measure: melting point (°C)

[[record]]
molecule = "COC(=O)C(=O)C1CCc2cc(OC)ccc2C1=O (centres undefined)"
measure_unit = "°C"
numeric_value = 71

[[record]]
molecule = "C=C1CCC(O)CC1=CC=C1CCCC2(C)C1CCC2C(C)CCCC(C)C (centres undefined)"
measure_unit = "°C"
numeric_value = 84.5

[[record]]
molecule = "NN=C1c2ccccc2-c2ccccc21"
measure_unit = "°C"
numeric_value = 152

[[record]]
molecule = "O=C(OC(=O)C(c1ccccc1)c1ccccc1)C(c1ccccc1)c1ccccc1"
measure_unit = "°C"
numeric_value = 98

[[record]]
molecule = "C=CCC#N"
measure_unit = "°C"
numeric_value = -87

[[record]]
molecule = "CCC(=O)c1cccc(Br)c1"
measure_unit = "°C"
numeric_value = 40


(a) Cc1ccc(S(=O)(=O)NC(=O)NC2CCCCC2)cc1
(b) C/C(=N\N=C1C(=O)Nc2ccccc21)c1c(O)c2ccccc2n(-c2ccccc2)c1=O
Q: Rank a against b by their melting point values and give the higher one. // output: label of the selected item
Result: b

(a) Cc1nc(/C(C#N)=N/Nc2ccccc2[N+](=O)[O-])sc1/N=N/c1ccccc1
(b) CC1(C)OC(C)(C(OC(=O)c2ccc(Br)cc2)C2CCCCC2)CCC1C(=O)O (centres undefined)
Q: Rank a against b by their melting point values and give the higher one. // output: label of the selected item
Result: a
(a: 210 °C, b: 111 °C)

(1) Cc1ccc(C)c(CNC2=CC(=O)c3ccccc3C2=O)c1
(2) CC(=NNC(N)=O)c1cccc(C(C)=NNC(N)=O)c1
Q: Smaller melting point value? Options are 1 and 2 // output: label of the selected item
Result: 1

(a) O=c1c2ccccc2nc2n1CCC2O (centres undefined)
(b) CC(=O)CC(=O)Nc1ccccc1C
(c) O=C(O)[C@@H]1Cc2ccccc2CN1
Q: Sort entries by melting point from minimum to maximum value. Use the labels to give the ranking in the order requested.
Result: b, a, c
